B1: LINE1-mini (parent)
chain: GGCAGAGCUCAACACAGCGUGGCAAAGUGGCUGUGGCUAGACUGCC

- Variants of: B1
- test.summary: self-cleavage, relative activity (ratio to wild type); higher = more cleavage; in vitro, sequencing; the parent is a self-cleaving ribozyme
# binarize self-cleavage: threshold 0.1 inclusive, high side condition met, low side condition not met

- mut: "G21U G30U"
  group.label: "condition met"
- mut: "C15U A41C"
  group.label: "condition not met"
- mut: "C8G G30A"
  group.label: "condition met"
- mut: "C10A G40C"
  group.label: "condition not met"
- mut: "A25U C42A"
  group.label: "condition met"
- mut: "U43A C46U"
  group.label: "condition met"
- mut: "G2A A16G"
  group.label: "condition met"
- mut: "G17U G19U"
  group.label: "condition met"
- mut: "G27C G29U"
  group.label: "condition met"
- mut: "A14U G27A"
  group.label: "condition met"
- mut: "G27U U28G"
  group.label: "condition met"
- mut: "C15A G29U"
  group.label: "condition met"
- mut: "U28G G35A"
  group.label: "condition met"
- mut: "A25G G40A"
  group.label: "condition not met"
- mut: "A14C G21U"
  group.label: "condition not met"
- mut: "G5U A25C"
  group.label: "condition not met"
- mut: "C15A G17C"
  group.label: "condition not met"
- mut: "G27A C46G"
  group.label: "condition met"
- mut: "A4U G5C"
  group.label: "condition met"
- mut: "A26C C42A"
  group.label: "condition met"
- mut: "G35A A41G"
  group.label: "condition not met"
- mut: "G29U C31G"
  group.label: "condition met"
- mut: "G33A C46G"
  group.label: "condition not met"
- mut: "A14G U43A"
  group.label: "condition not met"
- mut: "C8U C31A"
  group.label: "condition met"
- mut: "A12G A26C"
  group.label: "condition not met"
- mut: "A14U U28A"
  group.label: "condition met"
- mut: "G36A A39U"
  group.label: "condition met"
- mut: "C10U A26G"
  group.label: "condition met"
- mut: "A16G U43A"
  group.label: "condition not met"
- mut: "A4U U9C"
  group.label: "condition not met"
- mut: "A6C C31A"
  group.label: "condition met"
- mut: "C18U U34C"
  group.label: "condition not met"
- mut: "G33A G36C"
  group.label: "condition not met"
- mut: "G19U G33C"
  group.label: "condition not met"
- mut: "U20C G29A"
  group.label: "condition met"
- mut: "C15G G40C"
  group.label: "condition not met"
- mut: "C18U G40C"
  group.label: "condition not met"
- mut: "U38C C45G"
  group.label: "condition met"
- mut: "G22A A39C"
  group.label: "condition not met"
- mut: "A4U A26C"
  group.label: "condition met"
- mut: "G19A G33A"
  group.label: "condition met"
- mut: "C3U U38A"
  group.label: "condition met"
